Values were extracted from patent US20220296595A1.

Molecular target: CDK2/CyclinE1 (Homo sapiens)
Construct: purchased SignalChem C29-18G
Experiment: Assay for inhibition of CDK2/CyclinE1 (Caliper microfluidic kinase assay)
Format: biochemical
Conditions: CDK2/CyclinE1, 100 μM ATP; read-out: CDK2 IC50
pIC50: −log10 of the molar value.

| compound | pIC50 |
| --- | --- |
| COc1nc(-c2nc(Nc3ccc(N4CCCNCC4=O)cn3)ncc2F)cc2c1nc(C)n2C(C)C | 6.00 to 7.00 |
| CC(C)c1cnn2ccc(-c3ccnc(Nc4ccc(N5CCCC(N)C5=O)cn4)n3)cc12 (stereo not drawn) | 7.00 to 8.00 |
| CC(C)c1cnn2ccc(-c3ccnc(Nc4ccc(N5CCC(N(C)C)CC5=O)cc4F)n3)cc12 (stereo not drawn) | > 8.00 |
| CCN1CCN(c2ccc(Nc3nccc(-c4cc5c(ncn5C(C)C)c(OC)n4)n3)nc2)C(=O)C1 | 6.00 to 7.00 |
| CC(C)c1cnn2ccc(-c3nc(NC4CCN(S(C)(=O)=O)CC4)ncc3F)cc12 [Synthetic Example 10] | 7.00 to 8.00 |
| CC(C)c1cnn2ccc(-c3ccnc(Nc4ccn(CC5CCNCC5)n4)n3)cc12 | < 6.00 |
| CNC1CCCN(c2ccc(Nc3nccc(-c4cc(F)c5c(c4)C(C)(C)CO5)n3)cc2)C1=O (stereo not drawn) | 7.00 to 8.00 |
| COc1nc(-c2nc(Nc3ccc(N4CCC(N(C)C)CC4=O)cn3)ncc2F)cc2c1nc(C)n2C(C)C (single isomer, unassigned) [Example 62-2] | < 6.00 |
| COc1nc(-c2ccnc(Nc3ccc(N4CCC(C)(N)CC4)cn3)n2)cc2c1ncn2C(C)C | < 6.00 |
| CC1CC(=O)N(c2ccc(Nc3ncc(F)c(-c4ccn5ncc(C(C)C)c5c4)n3)nc2)CCN1 (stereo not drawn) | 7.00 to 8.00 |
| CC(C)c1cnn2ccc(-c3ccnc(Nc4ccc(C(=O)N5CCC(O)C5)cc4)n3)cc12 (stereo not drawn) | > 8.00 |
| COc1nc(-c2ccnc(Nc3ccc(N4CCN(CCF)CC4)cn3)n2)cc2c1ncn2C(C)C | < 6.00 |
| CC(C)c1cnn2ccc(-c3ccnc(Nc4ccc(N5CCN(CCO)CC5=O)cn4)n3)cc12 | 7.00 to 8.00 |
| CN(C)C1CCN(c2ccc(Nc3nccc(-c4cc(F)c5c(c4)C(C)(C)CO5)n3)nc2)C(=O)C1 (stereo not drawn) | 7.00 to 8.00 |
| CC(C)c1cnn2ccc(-c3nc(Nc4ccc(N5C(=O)CC6CC5CN6)cn4)ncc3F)cc12 (stereo not drawn) | 7.00 to 8.00 |
